# assayed_target: T1, human IL-18 binding protein (human, UniProt O95998 31-194)
# T1 sequence (looked up): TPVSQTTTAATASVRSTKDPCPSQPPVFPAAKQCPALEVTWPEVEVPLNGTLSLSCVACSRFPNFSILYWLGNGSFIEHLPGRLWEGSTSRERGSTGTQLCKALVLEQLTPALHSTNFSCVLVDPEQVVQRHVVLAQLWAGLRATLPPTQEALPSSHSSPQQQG
# assay_name: cell-based or functional assay
# HEK-blue EC50 (pM) + 1000 nM BP listing for each entry below
// units = pM; emit number, no label

{"columns": ["binder", "experimental_result"],
 "data": [
  ["human IL-18 variant G3V/E6K/K53A/M60K (ligand) YFVKLKSKLSVIRNLNDQVLFIDQGNRPLFEDMTDSDMRDNAPRTIFIISMYADSQPRGKAVTISVKSEKISTLSSENKIISFKEMNPPDNIKDTKSDIIFFQRSVPGHDNKMQFESSSYEGYFLASEKERDLFKLILKKEDELGDRSIMFTVQNED", 0.028]
]}

human IL-18 variant G3V/K53A/M60K (ligand) YFVKLESKLSVIRNLNDQVLFIDQGNRPLFEDMTDSDMRDNAPRTIFIISMYADSQPRGKAVTISVKSEKISTLSSENKIISFKEMNPPDNIKDTKSDIIFFQRSVPGHDNKMQFESSSYEGYFLASEKERDLFKLILKKEDELGDRSIMFTVQNED yielded HEK-blue EC50 (pM) + 1000 nM BP of 0.075
